Experiment: Tissue distribution in C57 BL6 mice bearing B16
Format: in vivo, mouse
Details: mouse, intestine, iv, 3 umol/animal; 1 h; read-out: intestine % ID/g
Readout Type: tissue uptake at 1 h (%ID/g)
Numbers only, in %ID/g.

Field tissue uptake at 1 h (entry CCN(CC)CCNC(=O)c1ccc(I)cc1 [Derivative A, N-(2-diethylaminoethyl) 4-iodo benzamide] ) reads 5.22

====

Assay: Tissue distribution in Swiss nu/nu SSCUP mice bearing Dau
Type: in vivo, human
Settings: mouse, plasma, iv, 3 umol/animal, 2 h; read-out: plasma % ID/g
Please respond with reported tissue uptake at 2 h for every item in the list.
One number for each entry, in %ID/g.

For every record below, what is its tissue uptake at 2 h?
1. CCNCCNC(=O)c1ccc(I)cc1 [Derivative B, N-(2-ethylaminoethyl) 4-iodo benzamide]
2. CCN(CC)CCNC(=O)c1ccc(I)cc1 [Derivative A, N-(2-diethylaminoethyl) 4-iodo benzamide]

Solution:
0.85
0.33
